Here, each record is paired with measured GI50 data.
- Tested on: OVCAR-4 ovarian
- EXPERIMENT SUMMARY: NCI tumour cell line growth inhibition, 48 h

Below, 3 molecules whose answers are already recorded.
COc1ccc2c3nc4cc(C)c(C)cc4nc3n(CCN(C)C)c2c1 = 2.82 µM
O=C(Nc1ccc(I)cc1)Nc1nc2ccc([N+](=O)[O-])cc2s1 = 3.69 µM
CN(C)CCNC(=O)OCCCCOc1cc(O)c2c(=O)cc(-c3ccccc3)oc2c1 = 10.1 µM

Record "CCOP(=O)(CC(F)(F)C(F)(F)F)OCC" / OVCAR-4 ovarian, GI50 recorded as 8.98 µM
